Each entry below lists one item and its recorded IC50 value.
biological target: human PDHK2 (hPDHK2) (Homo sapiens (Human)); assay: Inhibitory action of PDHK activity in vitro (kinase reaction, residual PDH activity measured); type: biochemical; settings: PDHK inhibitory activity, class symbol of IC50

For orientation, consider the following solved cases.
- OC12CC3CC(C1)CC(Cn1cc(-c4cccc5c4-c4ccccc4C5(O)C(F)(F)F)cn1)(C3)C2 (centres unmarked): < 100 nM
- O=C(c1ccc2c(c1)C(O)(C(F)(F)F)c1ccccc1-2)N1CC(CO)C1 (centres unmarked): 100 to 1000 nM
- CC(C)COc1ccc2c(c1)C(O)(C(F)(F)F)c1ccccc1-2 (centres unmarked): > 1000 nM
- OC1(C(F)(F)F)c2ccccc2-c2ncc(Cl)cc21 (centres unmarked): 100 to 1000 nM
- NC(=O)Cn1cc(-c2cc(OCCC34CC5CC(CC(O)(C5)C3)C4)cc3c2-c2ccccc2C3(O)C(F)(F)F)cn1 (single isomer, unassigned): < 100 nM

Task: State the recorded IC50 for this entry: Cn1cc(-c2cc(O)cc3c2-c2ccccc2C3(O)C(F)(F)F)cn1 (centres unmarked)
Output: 100 to 1000 nM

Task: State the recorded IC50 for this entry: Cc1ncc(-c2cccc3c2-c2ccccc2C3(O)C(F)(F)F)o1 (centres unmarked)
Output: 100 to 1000 nM

Task: State the recorded IC50 for this entry: Cn1cc(-c2cc(OCCCCO)cc3c2-c2ccccc2C3(O)C(F)(F)F)cn1 (centres unmarked)
Output: < 100 nM

# credit: patent US8871934B2
